measurement-target: proMMP9(67-444;ΔFnII) (SEQ ID NO:5) (Homo sapiens, UniProt P14780, DEL216-390)
Construct: amino acid pairs including: 29-215/391-444, 67-215/391-444, and 20-215/391-445, respectively; start methionine (N); made in house; host or cells: E. coli BL21(DE3) RIL
Sequence (P14780 with tags, fused parts or gaps DEL216-390): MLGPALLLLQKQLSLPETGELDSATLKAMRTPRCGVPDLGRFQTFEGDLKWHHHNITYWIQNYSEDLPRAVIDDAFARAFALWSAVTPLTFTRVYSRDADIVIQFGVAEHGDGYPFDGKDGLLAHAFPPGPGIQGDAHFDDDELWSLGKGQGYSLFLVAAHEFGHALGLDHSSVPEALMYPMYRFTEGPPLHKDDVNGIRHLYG
experiment-description: ThermoFluor binding assay with proMMP9(67-444;ΔFnII)
Method: The experiments were carried out using instruments available from Johnson & Johnson Pharmaceutical Research & Development, LLC. TF dye used in all experiments was […] (1,8-ANS) (Invitrogen: A-47). Columns 12 and 24 were used as DMSO reference and contained no compound. […] Following compound dispense, protein and dye solutions were added to achieve the final assay volume of 3 μL. […]
pKd: −log10 of the molar value.
quantity-name: pKd

>>> observed_result("COc1ccc(Cl)cc1Nc1nc(-c2cccnc2)cs1 [Example 56]")
4.83
>>> observed_result("COc1ccccc1Nc1nc(-c2sc(NS(C)(=O)=O)nc2C)cs1 [Example 34]")
6.09
>>> observed_result("COc1ccccc1Nc1nc(-c2ccncc2)cs1 [Example 60]")
4.95
>>> observed_result("CCc1ccccc1Nc1nc(-c2sc(NC(C)=O)nc2C)cs1 [Example 62]")
5.61
>>> observed_result("CCc1nc(N)sc1-c1nc(Nc2ccccc2OC)sc1C [Example 11]")
4.70
>>> observed_result("COc1ccccc1Nc1nc(-c2sc(C)nc2C)cs1 [Example 64]")
4.34
>>> observed_result("COc1ccccc1Nc1nc(-c2c(C)nc3ccccn23)cs1 [Example 46]")
4.44
>>> observed_result("CCc1nc(N)sc1-c1nc(Nc2cc(Cl)ccc2OC)sc1C [Example 17]")
5.40
>>> observed_result("COc1ccc(F)cc1Nc1nc(-c2sc(C)nc2C)cs1 [Example 5]")
5.26
>>> observed_result("COc1ccc(Br)cc1Nc1nc(-c2sc(N)nc2C)cs1 [Example 20]")
6.38
>>> observed_result("CC(=O)Nc1nc(C)c(-c2csc(Nc3ccccc3C)n2)s1 [Example 63]")
5.29
>>> observed_result("Brc1ccc(Nc2nc(-c3cccnc3)cs2)cn1 [Example 70]")
4.92
>>> observed_result("COc1ccc(Br)cc1Nc1nc(-c2sc(NC(C)=O)nc2C)cs1 [Example 21]")
6.85
>>> observed_result("COc1ccc(-c2csc(Nc3ccccc3OC)n2)cn1 [Example 28]")
4.65
>>> observed_result("CCOc1ccccc1Nc1nc(-c2sc(NC(=O)CC)nc2C)cs1 [Example 47]")
4.39
>>> observed_result("CCOc1ccccc1Nc1nc(-c2cccnc2)cs1 [Example 53]")
4.82
>>> observed_result("COc1ccc(F)cc1Nc1nc(-c2sc(NC(C)=O)nc2C)cs1 [Example 6]")
6.81
>>> observed_result("CC(=O)Nc1nc(C)c(-c2csc(Nc3ccccc3F)n2)s1 [Example 40]")
4.79
>>> observed_result("COc1ccc(Cl)cc1Nc1nc(-c2sc(NC(C)=O)nc2C)cs1 [Example 59]")
6.23

====

measurement-target: full-length proMMP9(1-707) activation by catalytic MMP3 (Homo sapiens, UniProt P14780, R574P)
Sequence (P14780 20-707 R574P): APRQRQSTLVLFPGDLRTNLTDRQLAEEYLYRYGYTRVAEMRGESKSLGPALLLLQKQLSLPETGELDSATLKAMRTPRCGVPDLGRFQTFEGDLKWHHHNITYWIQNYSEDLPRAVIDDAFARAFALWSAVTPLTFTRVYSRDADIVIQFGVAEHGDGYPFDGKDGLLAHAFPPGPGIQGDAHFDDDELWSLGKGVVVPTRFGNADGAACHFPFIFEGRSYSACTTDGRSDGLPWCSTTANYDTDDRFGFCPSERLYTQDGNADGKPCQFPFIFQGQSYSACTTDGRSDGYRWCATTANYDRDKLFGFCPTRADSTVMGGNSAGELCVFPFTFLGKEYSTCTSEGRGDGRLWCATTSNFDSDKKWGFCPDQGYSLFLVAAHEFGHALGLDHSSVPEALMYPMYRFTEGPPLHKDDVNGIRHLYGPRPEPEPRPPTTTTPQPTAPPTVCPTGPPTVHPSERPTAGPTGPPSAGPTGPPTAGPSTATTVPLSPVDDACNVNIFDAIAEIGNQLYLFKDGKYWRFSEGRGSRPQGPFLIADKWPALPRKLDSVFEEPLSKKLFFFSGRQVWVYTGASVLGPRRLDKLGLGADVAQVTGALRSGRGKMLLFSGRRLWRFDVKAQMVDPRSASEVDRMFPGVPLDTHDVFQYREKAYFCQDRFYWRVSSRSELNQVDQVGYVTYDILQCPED
experiment-description: proMMP9/MMP3 P126 Activation Assay
Type: biochemical
Parameters: made in house; host or cells: E. coli (MMP3)
experimental-context: proMMP9 from HEK293 cells
IC50 values by entry
quantity-name: IC50 (nM)

>>> observed_result("CC(=O)Nc1nc(C)c(-c2csc(Nc3ccccc3OC(C)C)n2)s1 [Example 1]")
2500
>>> observed_result("COc1ccc(F)cc1Nc1nc(-c2sc(C)nc2C)c(C)s1 [Example 77]")
3800
>>> observed_result("COc1ccc(F)cc1Nc1nc(-c2sc(NC(C)=O)nc2C)cs1 [Example 6]")
650
>>> observed_result("CC(C)Oc1ccccc1Nc1nc(-c2cccnc2)cs1 [Example 15]")
2500
>>> observed_result("COc1ccc(F)cc1Nc1nc(-c2sc(C)nc2C)cs1 [Example 5]")
710
>>> observed_result("COc1ccc(Br)cc1Nc1nc(-c2sc(C)nc2C)cs1 [Example 27]")
3100
>>> observed_result("COc1ccc(F)cc1Nc1nc(-c2sc(N)nc2C)cs1 [Example 4]")
1500
>>> observed_result("COc1ccc(F)cc1Nc1nc(-c2c(C)nc(C)n2C)cs1 [Example 42]")
5000
>>> observed_result("Cc1nc(C)c(-c2csc(Nc3ccccc3OC(F)(F)F)n2)s1 [Example 14]")
3600

====

measurement-target: proMMP9(20-445;ΔFnII) (SEQ ID NO:6) (Homo sapiens, UniProt P14780, DEL216-390)
Construct: amino acid pairs including: 29-215/391-444, 67-215/391-444, and 20-215/391-445, respectively; start methionine (N)
Sequence (P14780 with tags, fused parts or gaps DEL216-390): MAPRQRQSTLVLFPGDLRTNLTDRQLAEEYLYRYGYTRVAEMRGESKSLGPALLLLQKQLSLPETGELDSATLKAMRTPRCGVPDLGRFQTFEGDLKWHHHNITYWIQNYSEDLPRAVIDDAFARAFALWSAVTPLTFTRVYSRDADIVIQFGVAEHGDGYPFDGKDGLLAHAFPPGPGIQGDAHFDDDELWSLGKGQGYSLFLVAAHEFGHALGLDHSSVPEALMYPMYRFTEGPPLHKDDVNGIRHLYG
experiment-description: ThermoFluor binding assay with proMMP9(20-445;ΔFnII)
pKd: −log10 of the molar value.
pKd values by entry
quantity-name: pKd

>>> observed_result("CCOc1ccccc1Nc1nc(-c2cccnc2)cs1")
4.54
>>> observed_result("CC(=O)Nc1nc(C)c(-c2csc(Nc3ccccc3OC(C)C)n2)s1")
5.06
>>> observed_result("Cc1nc(N)sc1-c1csc(Nc2ccccc2OC(C)C)n1")
5.42
>>> observed_result("COc1ccccc1Nc1nc(-c2sc(N)nc2C)cs1")
5.42

====

measurement-target: proMMP9(20-445;ΔFnII) (SEQ ID NO:6) (Homo sapiens, UniProt P14780, DEL216-390)
Construct: amino acid pairs including: 29-215/391-444, 67-215/391-444, and 20-215/391-445, respectively; start methionine (N)
experiment-description: ThermoFluor binding assay with proMMP9(20-445;ΔFnII)
pKd: −log10 of the molar value.
quantity-name: pKd

>>> observed_result("COc1ccc(Br)cc1Nc1nc(-c2sc(NC(C)=O)nc2C)cs1")
5.35
>>> observed_result("COc1ccccc1Nc1nc(-c2ccc(-c3ccccc3)s2)cs1")
4.12
>>> observed_result("CC(=O)Nc1nc(C)c(-c2csc(Nc3ccccc3C)n2)s1")
4.71
>>> observed_result("CCOc1ccccc1Nc1nc(-c2c(C)nc3ncccn23)cs1")
5.14
>>> observed_result("COc1ccccc1Nc1nc(-c2sc(NS(C)(=O)=O)nc2C)cs1")
5.44
>>> observed_result("COc1ccc(Br)cc1Nc1nc(-c2sc(C)nc2C)cs1")
4.30
>>> observed_result("CCc1ccccc1Nc1nc(-c2sc(NC(C)=O)nc2C)cs1")
5.08
>>> observed_result("Cc1nc(N)sc1-c1csc(Nc2cccc(C(N)=O)c2)n1")
4.97
>>> observed_result("CCOc1ccccc1Nc1nc(-c2cn3ccccc3n2)cs1")
5.10
>>> observed_result("CSc1ccccc1Nc1nc(-c2sc(NC(C)=O)nc2C)cs1")
5.43
>>> observed_result("COc1ccc(F)cc1Nc1nc(-c2ccc3c(c2)ncn3C)cs1")
5.71
>>> observed_result("COc1ccccc1Nc1nc(-c2cnc(N)s2)cs1")
5.02
>>> observed_result("COc1ccccc1Nc1nc(-c2sc(C)cc2C)cs1")
5.78

====

measurement-target: proMMP9(67-444;ΔFnII) (SEQ ID NO:5) (Homo sapiens, UniProt P14780, DEL216-390)
Construct: amino acid pairs including: 29-215/391-444, 67-215/391-444, and 20-215/391-445, respectively; start methionine (N)
experiment-description: ThermoFluor binding assay with proMMP9(67-444;ΔFnII)
Description: The experiments were carried out using instruments available from Johnson & Johnson Pharmaceutical Research & Development, LLC. TF dye used in all experiments was […] (1,8-ANS) (Invitrogen: A-47). Columns 12 and 24 were used as DMSO reference and contained no compound. […] Following compound dispense, protein and dye solutions were added to achieve the final assay volume of 3 μL. […]
pKd: −log10 of the molar value.
quantity-name: pKd

>>> observed_result("CC(=O)Nc1nc(C)c(-c2csc(Nc3ccccc3OCC3CC3)n2)s1 [Example 19]")
5.41
>>> observed_result("CNc1nc(C)c(-c2csc(Nc3ccccc3OC)n2)s1 [Example 35]")
5.41
>>> observed_result("COc1ccccc1Nc1nc(-c2cc(C)ccn2)cs1 [Example 30]")
4.86
>>> observed_result("Cc1nc(C)c(-c2csc(Nc3ccccc3OC(C)C)n2)s1 [Example 2]")
4.26
>>> observed_result("CC(=O)Nc1nc(C)c(-c2csc(Nc3ccccc3C(F)(F)F)n2)s1 [Example 32]")
5.04
>>> observed_result("COc1ccccc1Nc1nc(-c2oc(C)nc2C)cs1 [Example 44]")
4.35
>>> observed_result("COc1ccc(Nc2nc(-c3sc(NC(C)=O)nc3C)cs2)c(OC)c1 [Example 23]")
5.26
>>> observed_result("COc1ccc(OC)c(Nc2nc(-c3sc(NC(C)=O)nc3C)cs2)c1 [Example 61]")
5.97
>>> observed_result("COc1ccc(F)cc1Nc1nc(-c2sc(N)nc2C)cs1 [Example 4]")
6.60
